# System: P388 leukemia ip, CD2F1 mice, survival T/C
# TEST_SUMMARY: NCI In Vivo Anticancer Drug Screen. Data for tumor model P388 Leukemia (intraperitoneal) in CD2F1 (CDF1) mice
# REPORTED_CONDITIONS: endpoint: median survival time; dose: 100.0 mg/kg/injection; schedule: Q04DX002 (ip); vehicle: saline with Tween-80; higher = longer survival
Toxic doses and inconclusive results are not listed.
MEASUREMENT_TYPE: T/C

c1ccc2nc(-c3cnc4ccccc4n3)cnc2c1: 95 % of control

Provide T/C values for the following items, in order.
1. Oc1cc(-c2ccc(Cl)cc2)c(O)cc1CN1CCOCC1
2. COc1ccc(/C=N/SC(c2ccccc2)(c2ccccc2)c2ccccc2)cc1
3. CSc1sc(C#N)c2nc3c(nc12)-c1cccc2cccc-3c12
4. CCCCC/C=C/C(=O)OC
5. O=C1NC(N(CCCl)CCCl)=NC1(c1ccccc1)c1ccccc1
6. CSc1nccc(=O)n1-c1ccc(C)cc1
7. CCCCCCC(=O)/C=C\c1ccccc1
8. O=C(/C(O)=C/c1ccccc1)c1ccccc1

OUT:
92 % of control
111 % of control
88 % of control
100 % of control
106 % of control
102 % of control
97 % of control
93 % of control

Provide T/C values for the following items, in order.
1. c1ccc(C2(N3CCOCC3)CSC2)cc1
2. c1ccc2c(NCC3CCN(c4c5ccccc5nc5ccccc45)CC3)c3ccccc3nc2c1
3. CN=C(N)N/N=C/c1c2ccccc2cc2ccccc12

OUT:
1: 95 % of control; 2: 111 % of control; 3: 114 % of control

###

Kindly state T/C for each of the entries shown.
# System: P388 leukemia ip, CD2F1 mice, survival T/C
# TEST_SUMMARY: NCI In Vivo Anticancer Drug Screen. Data for tumor model P388 Leukemia (intraperitoneal) in CD2F1 (CDF1) mice
# REPORTED_CONDITIONS: endpoint: median survival time; dose: 50.0 mg/kg/injection; schedule: Q01DX001 (ip); vehicle: saline with Tween-80; higher = longer survival
Inconclusive results and toxic doses are left out.

Recorded T/C, per entry:
CCCCC(CC1CCCCC1)C(=O)O (centres undefined): 113 % of control
CC1CC(C)(C)CC2(C1)OCC(CCl)O2 (centres undefined): 104 % of control
CCCCC/C(=N\Nc1ccc([N+](=O)[O-])cc1[N+](=O)[O-])c1ccccc1: 105 % of control

Assay P388 leukemia ip, CD2F1 mice, survival T/C, sample CC(C)NCc1ccccc1Sc1ccccc1 , T/C read: 104 % of control

###

# Test system: P388 leukemia ip, CD2F1 mice, survival T/C
# TEST_SUMMARY: NCI In Vivo Anticancer Drug Screen. Data for tumor model P388 Leukemia (intraperitoneal) in CD2F1 (CDF1) mice
# REPORTED_CONDITIONS: endpoint: median survival time; dose: 12.5 mg/kg/injection; schedule: Q01DX005 (ip); vehicle: saline with Tween-80
Inconclusive results and toxic doses are left out. The calls were made as follows: active = survival T/C of 150% or more; inactive = T/C below 125% in these data.
// allowed return values: True for active, False for inactive

O=[C-]/C=C\[C-]=O.[C-]#[O+].[C-]#[O+].[C-]#[O+].[C-]#[O+].[Fe+2]: False

IN: Hi, do you know how Nc1ncnc2cc3cn[nH]c3cc12 came out in this test?
OUT: False

IN: Hi, do you know how O=C(OCC(OC(=O)c1ccccc1)C(OC(=O)c1ccccc1)C(OC(=O)c1ccccc1)C(OC(=O)c1ccccc1)c1nn[nH]n1)c1ccccc1 (stereo not drawn) came out in this test?
OUT: False

IN: Hi, do you know how CN(C)/N=N/c1ccn[nH]1 came out in this test?
OUT: False

IN: Hi, do you know how CNC(=O)OCc1c(COC(=O)NC)c(-c2ccccc2)n(-c2ccccc2)c1C came out in this test?
OUT: True

IN: Hi, do you know how CN(CCC1(C)C(=O)CCc2ccccc21)Cc1ccccc1 (stereo not drawn) came out in this test?
OUT: False

IN: Hi, do you know how C/C(=N\NC(=S)Nc1ccc(S(N)(=O)=O)cc1)c1ccccn1 came out in this test?
OUT: False

IN: Hi, do you know how O=C(CCl)N1c2ccc3ccccc3c2Sc2ccc3ccccc3c21 came out in this test?
OUT: False

###

Kindly state T/C for each of the entries shown.
# Test system: P388 leukemia ip, CD2F1 mice, survival T/C
# TEST_SUMMARY: NCI In Vivo Anticancer Drug Screen. Data for tumor model P388 Leukemia (intraperitoneal) in CD2F1 (CDF1) mice
# REPORTED_CONDITIONS: endpoint: median survival time; dose: 50.0 mg/kg/injection; schedule: Q01DX005 (ip); vehicle: saline with Tween-80; higher = longer survival
Toxic doses and inconclusive results are not listed.

CCCCCCCNc1ncnc2[nH]ncc12: 112 % of control

Provide T/C values for the following items, in order.
1. COc1ccc(CCNC2=CC(=O)CC2)cc1OC
2. O[C@H]1CCC[C@H]1NCc1ccnc2cc(Cl)ccc12
3. O=[N+]([O-])CC(c1ccccc1)C(C[N+](=O)[O-])c1ccccc1 (centres undefined)

OUT:
89 % of control
100 % of control
91 % of control

###

# System: P388 leukemia ip, CD2F1 mice, survival T/C
# TEST_SUMMARY: NCI In Vivo Anticancer Drug Screen. Data for tumor model P388 Leukemia (intraperitoneal) in CD2F1 (CDF1) mice
# REPORTED_CONDITIONS: endpoint: median survival time; dose: 100.0 mg/kg/injection; schedule: Q01DX005 (ip); vehicle: saline with Tween-80; higher = longer survival
Toxic doses and inconclusive results are not listed.
MEASUREMENT_TYPE: T/C

Recorded T/C, per entry:
O=Nc1c(NO)n(-c2ccccc2)c(=S)n1-c1ccccc1: 109 % of control
O=C1C(Sc2ccccc2)C(c2ccccc2)C1Sc1ccccc1 (stereo not drawn): 105 % of control

The reported value for Cc1ccc(-n2c(=S)n(-c3ccccc3C)c3nc4ccccc4nc2/c3=N\Nc2ccc(Cl)cc2)cc1 in terms of T/C is 88 % of control

###

Kindly state T/C for each of the entries shown.
# Test system: P388 leukemia ip, CD2F1 mice, survival T/C
# TEST_SUMMARY: NCI In Vivo Anticancer Drug Screen. Data for tumor model P388 Leukemia (intraperitoneal) in CD2F1 (CDF1) mice
# REPORTED_CONDITIONS: endpoint: median survival time; dose: 120.0 mg/kg/injection; schedule: Q01DX005 (ip); vehicle: saline with Tween-80; higher = longer survival
Toxic doses and inconclusive results are not listed.

Recorded T/C, per entry:
COc1cccc(C2SCC(=O)N2c2nncs2)c1 (centres undefined): 97 % of control
Cc1ccc(S(=O)(=O)F)cc1C(=O)O: 93 % of control
CCOC(=O)C1=C(NC23CC4CC(CC(C4)C2)C3)OCC1=O: 110 % of control

The record that follows has no T/C shown yet.
The reported value for O=C(O)C1C2CC3C(OC(=O)C31)C2Br (centres undefined) in terms of T/C is 97 % of control

###

Kindly state T/C for each of the entries shown.
# Tested on: P388 leukemia ip, CD2F1 mice, survival T/C
# TEST_SUMMARY: NCI In Vivo Anticancer Drug Screen. Data for tumor model P388 Leukemia (intraperitoneal) in CD2F1 (CDF1) mice
# REPORTED_CONDITIONS: endpoint: median survival time; dose: 50.0 mg/kg/injection; schedule: Q01DX005 (ip); vehicle: Klucel (hydroxypropylcellulose) (HPC); higher = longer survival
Toxic doses and inconclusive results are not listed.

Recorded T/C, per entry:
Cc1nc2cc3c(cc2n2cccc12)oc1ccccc13: 96 % of control
CN(C)C1=CC(=O)NC(c2ccccc2)C1 (stereo not given): 102 % of control
COC(=O)C[C@@]1(C(=O)OC)[C@H](C(=O)OC)[C@@H](C(=O)OC)N(C(C)=O)N1C: 105 % of control

Provide T/C values for the following items, in order.
1. c1ccc(CNc2cccc(NCc3ccccn3)n2)nc1
2. COC(=O)c1csccc1=O
3. O=C1c2ccccc2C(=O)N1CCc1ccccc1Br

OUT:
["101 % of control", "112 % of control", "104 % of control"]

Provide T/C values for the following items, in order.
1. O=[N+]([O-])c1ccc(/C=N/NC(=S)NC23CC4CC(CC(C4)C2)C3)o1
2. O=C(NC1CCCCC1NC(=O)C12CC3CC(CC(C3)C1)C2)C12CC3CC(CC(C3)C1)C2 (stereo not given)
3. CCOC(=O)c1cnc(NCCCNc2ncc(C(=O)OCC)c(=O)[nH]2)[nH]c1=O
4. O=C(O)c1cc2cc3c(cc2c2ccccc12)OCO3
5. C=C(C)C1CC=C(C)C(OCCN(CC)CC)C1 (stereo not given)

OUT:
92 % of control
88 % of control
105 % of control
100 % of control
100 % of control

Provide T/C values for the following items, in order.
1. C=C(C)C(=O)N(C)c1nc(N(C)C)nc(N(C)C)n1
2. Cc1ccc(NCCN(C)CC(C)O)c2c(=O)c3ccc(Cl)cc3sc12 (stereo not given)
3. COc1cccc(C2OC3=C(Nc4ccc([N+](=O)[O-])cc4N3)C2=O)c1 (stereo not given)
4. COC(=O)C1=C(\N2CCCC2)CC(C)(C)CC(=O)/C=C\1C(=O)OC

OUT:
["101 % of control", "102 % of control", "102 % of control", "92 % of control"]

Entry source: PubChem BioAssay AID330
